target: T1, mouse vascular endothelial growth factor receptor-2 Fc chimera (Flk-1-Fc) (mouse, UniProt P35918 20-762); test: BIAcore, target-Fc immobilized
T1 construct: purchased from R&D Systems; also called mouse VEGF-R2-Fc; not shown: Fc part of the purchased chimera
T1 sequence (P35918 20-762, change not shown): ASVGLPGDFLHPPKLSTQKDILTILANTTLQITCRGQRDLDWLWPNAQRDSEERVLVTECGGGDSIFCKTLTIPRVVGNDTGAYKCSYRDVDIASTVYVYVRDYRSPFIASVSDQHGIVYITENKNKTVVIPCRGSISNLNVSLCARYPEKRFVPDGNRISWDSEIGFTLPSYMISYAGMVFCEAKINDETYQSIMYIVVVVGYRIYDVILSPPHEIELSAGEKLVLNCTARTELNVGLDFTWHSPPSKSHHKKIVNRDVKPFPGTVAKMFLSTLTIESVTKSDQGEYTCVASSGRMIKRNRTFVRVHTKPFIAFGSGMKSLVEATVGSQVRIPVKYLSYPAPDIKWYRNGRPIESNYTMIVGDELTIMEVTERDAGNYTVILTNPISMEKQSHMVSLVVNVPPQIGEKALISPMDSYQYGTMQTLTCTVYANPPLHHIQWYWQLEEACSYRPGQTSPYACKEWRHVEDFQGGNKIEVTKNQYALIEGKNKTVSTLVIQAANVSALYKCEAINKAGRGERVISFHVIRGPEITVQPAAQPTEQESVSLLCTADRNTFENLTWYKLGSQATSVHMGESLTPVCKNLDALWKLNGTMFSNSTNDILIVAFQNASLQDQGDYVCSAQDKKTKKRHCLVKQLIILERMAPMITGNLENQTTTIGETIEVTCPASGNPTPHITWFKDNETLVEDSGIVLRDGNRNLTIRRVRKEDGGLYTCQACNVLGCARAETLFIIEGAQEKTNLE
pKd: −log10 of the molar value.
Param threshold (9) applies to pKd; output fulfilled when value >= threshold, not fulfilled when value < threshold.

{"binder": "M5FL (designed binder, extension and tag left out) VSDVPRDLEVVAATPTSLLISWRHPHFPTRYYRITYGETGGNSPVQEFTVPLQPPLATISGLKPGVDYTITGYAVTKERNGRELFTPISINYRT", "label": "not fulfilled"}
{"binder": "E19 (designed binder, Del 1-8 10Fn3 clone; Flag-tagged in vitro translated protein in the radioactive assay, His6-tagged E. coli protein in BIAcore and cell assays; tags left out) EVVAATPTSLLISWRHPHFPTRYYRITYGETGGNSPVQEFTVPLQPPTATISGLKPGVDYTITGYAVTVERNGRHLMTPISINYRT", "label": "fulfilled"}
{"binder": "E29 (designed binder, Del 1-8 10Fn3 clone; Flag-tagged in vitro translated protein in the radioactive assay, His6-tagged E. coli protein in BIAcore and cell assays; tags left out) EVVAATPTSLLISWRHPHFPTRYYRITYGETGGNSPVQEFTVPLQPPTATISGLKPGVDYTITGYAVTVERNGRVLMTPISINYRT", "label": "fulfilled"}
{"binder": "E26 (designed binder, Del 1-8 10Fn3 clone; Flag-tagged in vitro translated protein in the radioactive assay, His6-tagged E. coli protein in BIAcore and cell assays; tags left out) EVVAATPTSLLISWRHPHFPTRYYRITYGETGGNSPVQEFTVPLQPPTATISGLKPGVDYTITGYAVTVERNGRELMTPISINYRT", "label": "not fulfilled"}
{"binder": "E6 (designed binder, Del 1-8 10Fn3 clone; Flag-tagged in vitro translated protein in the radioactive assay, His6-tagged E. coli protein in BIAcore; tags left out) EVVAATPTSLLISWRHPHFPTRYYRITYGETGGNSPVQEFTVPLQPPTATISGLKPGVDYTITGYAVTDGWNGRLLSIPISINYRT", "label": "not fulfilled"}
{"binder": "E18 (designed binder, Del 1-8 10Fn3 clone; Flag-tagged in vitro translated protein in the radioactive assay, His6-tagged E. coli protein in BIAcore and cell assays; tags left out) EVVAATPTSLLISWRHPHFPTRYYRITYGETGGNSPVQEFTVPLQPPTATISGLKPGVDYTITGYAVTVERNGRELNTPISINYRT", "label": "fulfilled"}

These entries and their values trace back to patent US20140179896A1.
